molecular target: c-Abl (His-tagged recombinant human ABL1) (Homo sapiens (Human)); assay: c-abl Kinase Assay (ADP-Glo); settings: ATP (25 μM), Abltide substrate
Sequence (P00519 whole entry): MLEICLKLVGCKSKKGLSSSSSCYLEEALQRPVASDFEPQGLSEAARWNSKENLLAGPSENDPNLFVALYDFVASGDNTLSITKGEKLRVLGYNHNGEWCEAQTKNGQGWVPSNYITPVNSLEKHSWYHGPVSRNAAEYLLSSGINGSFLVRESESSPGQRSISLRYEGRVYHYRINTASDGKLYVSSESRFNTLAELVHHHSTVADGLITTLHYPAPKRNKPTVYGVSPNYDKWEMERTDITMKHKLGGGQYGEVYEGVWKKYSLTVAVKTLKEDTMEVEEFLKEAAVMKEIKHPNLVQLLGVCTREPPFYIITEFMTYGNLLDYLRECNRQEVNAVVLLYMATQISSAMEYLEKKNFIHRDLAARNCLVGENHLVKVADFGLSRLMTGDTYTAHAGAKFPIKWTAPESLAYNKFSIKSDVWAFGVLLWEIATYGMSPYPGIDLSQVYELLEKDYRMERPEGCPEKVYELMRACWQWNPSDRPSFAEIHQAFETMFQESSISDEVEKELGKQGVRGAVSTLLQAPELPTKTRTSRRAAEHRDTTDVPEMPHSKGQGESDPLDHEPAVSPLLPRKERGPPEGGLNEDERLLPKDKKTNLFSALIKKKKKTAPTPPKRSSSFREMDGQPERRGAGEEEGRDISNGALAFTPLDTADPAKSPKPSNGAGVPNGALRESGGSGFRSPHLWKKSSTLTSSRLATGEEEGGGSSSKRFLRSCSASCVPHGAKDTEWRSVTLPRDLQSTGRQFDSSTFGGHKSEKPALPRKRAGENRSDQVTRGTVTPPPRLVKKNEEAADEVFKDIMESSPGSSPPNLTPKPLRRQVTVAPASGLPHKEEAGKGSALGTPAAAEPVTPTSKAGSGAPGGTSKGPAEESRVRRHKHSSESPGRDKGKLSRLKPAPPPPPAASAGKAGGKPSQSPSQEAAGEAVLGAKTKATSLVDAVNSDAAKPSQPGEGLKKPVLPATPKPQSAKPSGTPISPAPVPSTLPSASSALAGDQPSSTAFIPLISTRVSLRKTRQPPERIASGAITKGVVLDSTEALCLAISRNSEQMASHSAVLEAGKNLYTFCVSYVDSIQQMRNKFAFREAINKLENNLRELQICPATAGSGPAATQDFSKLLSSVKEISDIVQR
IC50 overview

chemSmiles | IC50
O=C(Nc1cn2cc(-c3ccc4sc(=O)[nH]c4c3)ccc2n1)[C@@H]1C[C@@H]1F | 10 to 100 nM
CSc1c(F)cccc1-c1ccc2nc(NC(=O)[C@@H]3C[C@@H]3F)cn2c1 | < 10 nM
Nc1c(F)cccc1-c1ccc2nc(NC(=O)[C@@H]3C[C@@H]3F)cn2c1 | < 10 nM
CNCc1c(F)cccc1-c1ccc2nc(NC(=O)[C@@H]3C[C@@H]3F)cn2c1 | > 1000 nM
Cc1c(F)cccc1-c1ccc2nc(NC(=O)C3CC3)cn2c1 | < 10 nM

API: the following record is the query input.
Cc1c[nH]c2ncc(-c3ccc4nc(NC(=O)[C@@H]5C[C@@H]5F)cn4c3)cc12 yielded IC50 of < 10 nM
